System: Escherichia coli TOP10
Assay: shrunken log2 fold change of peptide-encoding DNA abundance (4.5 h post-induction vs induction); higher = less antimicrobial activity (less host growth inhibition)
Condition Description: time post-induction: 4.5 h; library: site-saturation at positions 5, 18, 19, 20
Entries are sorted into classes by shrunken log2 fold change as follows: low-valued: < -0.07; mid-valued: ≥ -0.07 and < 0.1; high-valued: ≥ 0.1

Q: Into which category would you place `RRIRHRPPRLPRPRPRPPNPPRP` ?
Ans: high-valued

Q: Repeat with `RRIRDRPPRLPRPRPRPTHTPRP`
Ans: low-valued

Q: What do we get for `RRIRERPPRLPRPRPRPDDDPRP` ?
Ans: mid-valued

Q: Ok, now `RRIRKRPPRLPRPRPRPMFWPRP`
Ans: high-valued

Q: What about `RRIRKRPPRLPRPRPRPVVHPRP` ?
Ans: high-valued

Q: Again, but for `RRIRMRPPRLPRPRPRPFLKPRP`
Ans: low-valued

Q: Can you check `RRIRNRPPRLPRPRPRPRTMPRP` next?
Ans: high-valued

Q: Also `RRIRFRPPRLPRPRPRPVAIPRP` , if possible.
Ans: mid-valued

Q: Then `RRIRRRPPRLPRPRPRPIGTPRP` ?
Ans: mid-valued

Q: Next record, please: `RRIRNRPPRLPRPRPRPPMHPRP`
Ans: mid-valued

Q: And for `RRIRPRPPRLPRPRPRPCSPPRP` ?
Ans: mid-valued

Q: // next record `RRIRTRPPRLPRPRPRPKLIPRP`
Ans: low-valued

Q: What about `RRIRIRPPRLPRPRPRPYYDPRP` ?
Ans: low-valued

Q: Then what about the sequence `RRIRLRPPRLPRPRPRPAVWPRP` ?
Ans: high-valued

Q: Then `RRIRWRPPRLPRPRPRPFFMPRP` ?
Ans: low-valued

====

Please go through the items and note down their shrunken log2 fold change.
Test system: Escherichia coli TOP10;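 further: peptides expressed intracellularly from a pBAD plasmid library in pooled LB shake-flask culture, induced with 0.3% L-arabinose, DNA abundance read by NGS, three biological replicates, DESeq2 with apeglm shrinkage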
Assay: shrunken log2 fold change of peptide-encoding DNA abundance (4.5 h post-induction vs induction); higher = less antimicrobial activity (less host growth inhibition)
Condition Description: time post-induction: 4.5 h; library: site-saturation at positions 5, 18, 19, 20

Q: Item `RRIRLRPPRLPRPRPRPEVMPRP` with Escherichia coli TOP10 - shrunken log2 fold change?
Ans: 0.0474

Q: Request: `RRIRMRPPRLPRPRPRPNTCPRP`
Ans: -0.145

Q: Record: `RRIRQRPPRLPRPRPRPWYTPRP`
Ans: -0.132

Q: Further, for `RRIRWRPPRLPRPRPRPIRYPRP` ?
Ans: -0.242

Q: Next sequence up: `RRIRYRPPRLPRPRPRPMYQPRP`
Ans: -0.124

Q: Item: `RRIRNRPPRLPRPRPRPPVNPRP`
Ans: -0.249

Q: What about this sequence? `RRIRQRPPRLPRPRPRPPKQPRP`
Ans: -0.0279

Q: Another sequence to check: `RRIRGRPPRLPRPRPRPPFGPRP`
Ans: 0.738

Q: One more sequence: `RRIRPRPPRLPRPRPRPWHSPRP`
Ans: -0.134

Q: Queued: `RRIRQRPPRLPRPRPRPQTNPRP`
Ans: -0.736

Q: Item: `RRIRFRPPRLPRPRPRPQNWPRP`
Ans: -0.148

Q: And then `RRIRIRPPRLPRPRPRPWKIPRP` , what is it?
Ans: -0.0311

Q: Try this sequence too: `RRIRMRPPRLPRPRPRPGQFPRP`
Ans: 0.0853

Q: Same question for `RRIRKRPPRLPRPRPRPCGPPRP` please.
Ans: -0.0191

Q: Same lookup for `RRIRRRPPRLPRPRPRPCDCPRP` , please.
Ans: 0.00422

Q: What do you have for `RRIRERPPRLPRPRPRPFEAPRP` ?
Ans: -0.342

Q: // next record `RRIRSRPPRLPRPRPRPPGCPRP`
Ans: 0.676

Q: What do we get for `RRIRWRPPRLPRPRPRPYVVPRP` ?
Ans: -0.256

Q: Next: `RRIRRRPPRLPRPRPRPNLIPRP`
Ans: -0.221

Q: Try the sequence `RRIRERPPRLPRPRPRPQWPPRP`
Ans: -0.0675

Q: How about this sequence: `RRIRIRPPRLPRPRPRPTSCPRP`
Ans: -0.0992

Q: Now this one: `RRIRSRPPRLPRPRPRPTTYPRP`
Ans: -0.359

Q: Try `RRIRYRPPRLPRPRPRPTWEPRP` next.
Ans: -0.0387

Q: Next record, please: `RRIRWRPPRLPRPRPRPDRAPRP`
Ans: 0.487

Q: `RRIRIRPPRLPRPRPRPCHAPRP` ?
Ans: -0.618

Q: Then `RRIRARPPRLPRPRPRPWRQPRP` ?
Ans: 0.0426

Q: Let us now turn to `RRIRARPPRLPRPRPRPFKWPRP`
Ans: -0.176

Q: Then what about the sequence `RRIRHRPPRLPRPRPRPQPFPRP` ?
Ans: -0.213

Q: Next entry: `RRIRGRPPRLPRPRPRPHEFPRP`
Ans: 0.144

Q: Follow-up item: `RRIRPRPPRLPRPRPRPAAAPRP`
Ans: 0.56

Q: How about `RRIRMRPPRLPRPRPRPRLQPRP` ?
Ans: 0.417

Q: Another sequence to check: `RRIRYRPPRLPRPRPRPATDPRP`
Ans: -0.327

Q: Moving on to the next sequence: `RRIRMRPPRLPRPRPRPVNRPRP`
Ans: 0.105

Q: What do we get for `RRIRHRPPRLPRPRPRPICFPRP` ?
Ans: -0.114

Q: Similarly, `RRIRRRPPRLPRPRPRPQCSPRP` ?
Ans: 0.109

Q: Similarly, `RRIRRRPPRLPRPRPRPPAMPRP` ?
Ans: 0.814

Q: Next sequence up: `RRIRDRPPRLPRPRPRPEPEPRP`
Ans: 0.579

Q: Another: `RRIRRRPPRLPRPRPRPVDEPRP`
Ans: 0.0882

Q: // repeat for `RRIRIRPPRLPRPRPRPERCPRP` and report
Ans: 0.296

Q: Request: `RRIRERPPRLPRPRPRPTAFPRP`
Ans: -0.16

Q: `RRIRKRPPRLPRPRPRPYWCPRP` ?
Ans: -0.485

Q: Now the same for `RRIRPRPPRLPRPRPRPKCEPRP`
Ans: -0.187

Q: And `RRIRARPPRLPRPRPRPFARPRP` ?
Ans: -0.0584

Q: Then `RRIRKRPPRLPRPRPRPYTNPRP` ?
Ans: -0.21

Q: Could you do the same for `RRIRVRPPRLPRPRPRPAWDPRP` , please?
Ans: 0.258

Q: Then `RRIRIRPPRLPRPRPRPHRIPRP` ?
Ans: 0.0122

Q: How about this sequence: `RRIRPRPPRLPRPRPRPNRVPRP`
Ans: -0.275

Q: Okay, and `RRIRNRPPRLPRPRPRPWDGPRP` ?
Ans: 0.185

Q: Another sequence: `RRIRDRPPRLPRPRPRPRLEPRP`
Ans: 0.387

Q: Cool, now `RRIRIRPPRLPRPRPRPLMDPRP`
Ans: -0.396

Q: Then this sequence: `RRIRFRPPRLPRPRPRPNCFPRP`
Ans: -0.193

Q: Also `RRIRHRPPRLPRPRPRPICKPRP` ?
Ans: -0.204

Q: Same thing, different sequence: `RRIRLRPPRLPRPRPRPHSRPRP`
Ans: -0.0563

Q: Now try `RRIRSRPPRLPRPRPRPMKIPRP` .
Ans: 0.108

Q: Entry to check: `RRIRLRPPRLPRPRPRPSTDPRP`
Ans: -0.356

Q: One more sequence: `RRIRERPPRLPRPRPRPGCWPRP`
Ans: 0.166

Q: # iterate: `RRIRMRPPRLPRPRPRPIYVPRP`
Ans: -0.165

Q: One more sequence: `RRIRVRPPRLPRPRPRPCDWPRP`
Ans: 0.192

Q: Proceed to `RRIRHRPPRLPRPRPRPGMHPRP`
Ans: -0.01

Q: What do you have for `RRIRGRPPRLPRPRPRPDWPPRP` ?
Ans: 0.566

Q: Try this sequence too: `RRIRWRPPRLPRPRPRPSMWPRP`
Ans: 0.111

Q: Follow-up item: `RRIRVRPPRLPRPRPRPEGVPRP`
Ans: 0.907

Q: Thanks! And `RRIRMRPPRLPRPRPRPWCSPRP` ?
Ans: -0.075
